- Species: Bos taurus
- Assay method text: Displacement of [3H]CGS21680 from adenosine A2A receptor in bovine brain membrane at 10 uM
- Type: cell membranes
Threshold rule: Activity greater than or equal to 40% is met; below that, not met.

Prompt: Is the recorded value of Activity equal to or greater than 40% for this molecule? `COc1ccc(-n2nc3c(NC(=O)c4ccncc4)nc4ccccc4n3c2=O)cc1`
Completion: met

Prompt: Is the recorded value of Activity equal to or greater than 40% for this molecule? `O=C(Nc1nc2ccccc2n2c(=O)n(-c3ccccc3)nc12)c1cccc(I)c1`
Completion: not met

Prompt: Is the recorded value of Activity equal to or greater than 40% for this molecule? `COc1ccc(-n2nc3c(N(S(C)(=O)=O)S(C)(=O)=O)nc4ccccc4n3c2=O)cc1`
Completion: not met

Prompt: Is the recorded value of Activity equal to or greater than 40% for this molecule? `O=C(NCc1ccccc1)Nc1nc2c([N+](=O)[O-])cccc2n2c(=O)n(-c3ccccc3)nc12`
Completion: met

Prompt: Is the recorded value of Activity equal to or greater than 40% for this molecule? `COc1ccc(-n2nc3c(NS(C)(=O)=O)nc4ccccc4n3c2=O)cc1`
Completion: not met

###

Field: pKi. Provide a value for each of the molecules that follow.
Just so you know, pKi here is -log10 of the concentration in molar units; reply with that number alone.

pKi on Adenosine receptor A3 (Homo sapiens, UniProt P0DMS8) for `O=C(NCc1ccccc1)Nc1nc2ccccc2n2c(=O)n(-c3ccccc3)nc12` is 7.08

pKi on Adenosine receptor A3 (Homo sapiens, UniProt P0DMS8) for `COc1ccc(-n2nc3c(N(S(C)(=O)=O)S(C)(=O)=O)nc4ccccc4n3c2=O)cc1` is 6.41

pKi on Adenosine receptor A3 (Homo sapiens, UniProt P0DMS8) for `O=C(Nc1nc2ccccc2n2c(=O)n(-c3ccccc3)nc12)c1ccncc1` is 8.21

pKi on Adenosine receptor A3 (Homo sapiens, UniProt P0DMS8) for `CS(=O)(=O)Nc1nc2ccccc2n2c(=O)n(-c3ccccc3)nc12` is 5.85

pKi on Adenosine receptor A3 (Homo sapiens, UniProt P0DMS8) for `COc1ccc(-n2nc3c(OCc4ccccc4)nc4ccccc4n3c2=O)cc1` is 8.19

pKi on Adenosine receptor A3 (Homo sapiens, UniProt P0DMS8) for `O=C(NCc1ccccc1)Nc1nc2c([N+](=O)[O-])cccc2n2c(=O)n(-c3ccccc3)nc12` is 7.20

pKi on Adenosine receptor A3 (Homo sapiens, UniProt P0DMS8) for `COc1ccc(-n2nc3c(NC(=O)NCc4ccccc4)nc4ccccc4n3c2=O)cc1` is 7.19

pKi on Adenosine receptor A3 (Homo sapiens, UniProt P0DMS8) for `CS(=O)(=O)N(c1nc2ccccc2n2c(=O)n(-c3ccccc3)nc12)S(C)(=O)=O` is 8.26

###

- System: Adenosine receptor A3 (Homo sapiens)
- Sequence (P0DMS8 whole entry): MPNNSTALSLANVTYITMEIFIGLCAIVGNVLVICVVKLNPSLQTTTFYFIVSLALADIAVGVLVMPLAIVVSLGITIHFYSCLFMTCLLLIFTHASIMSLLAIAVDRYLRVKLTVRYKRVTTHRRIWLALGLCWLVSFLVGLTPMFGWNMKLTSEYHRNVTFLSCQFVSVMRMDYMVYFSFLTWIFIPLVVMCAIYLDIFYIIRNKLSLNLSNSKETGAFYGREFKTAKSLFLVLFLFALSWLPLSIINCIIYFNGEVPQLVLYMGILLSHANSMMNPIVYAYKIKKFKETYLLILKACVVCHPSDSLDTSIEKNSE
- Assay method text: Antagonist activity at human […] expressed in CHO cells assessed as inhibition of NECA-induced cAMP accumulation
Assay readout: pEC50
Just so you know, pEC50 here is -log10 of the concentration in molar units; reply with that number alone.

pEC50 reported for this compound `CS(=O)(=O)N(c1nc2ccccc2n2c(=O)n(-c3ccccc3)nc12)S(C)(=O)=O` : 7.92

###

- System: Adenosine receptor A1 (Bos taurus)
- Sequence (P28190 whole entry): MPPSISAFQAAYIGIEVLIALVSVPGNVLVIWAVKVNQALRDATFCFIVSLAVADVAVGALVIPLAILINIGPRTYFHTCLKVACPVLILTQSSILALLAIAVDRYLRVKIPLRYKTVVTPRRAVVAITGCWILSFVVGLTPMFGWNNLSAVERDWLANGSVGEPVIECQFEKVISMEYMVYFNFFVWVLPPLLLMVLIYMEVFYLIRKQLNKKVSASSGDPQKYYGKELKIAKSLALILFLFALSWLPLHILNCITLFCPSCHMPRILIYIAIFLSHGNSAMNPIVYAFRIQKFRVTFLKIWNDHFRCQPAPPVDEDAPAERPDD
Field: pKi. Provide a value for each of the compounds that follow.
Just so you know, pKi here is -log10 of the concentration in molar units; reply with that number alone.

pKi on Adenosine receptor A1 (Bos taurus) for `O=C(NCc1ccccc1)Nc1nc2c([N+](=O)[O-])cccc2n2c(=O)n(-c3ccccc3)nc12` is 8.34

pKi on Adenosine receptor A1 (Bos taurus) for `O=C(NC(=O)c1ccccc1)Nc1nc2ccccc2n2c(=O)n(-c3ccccc3)nc12` is 7.00

pKi on Adenosine receptor A1 (Bos taurus) for `O=C(Nc1nc2ccccc2n2c(=O)n(-c3ccccc3)nc12)c1cccc(I)c1` is 6.33

pKi on Adenosine receptor A1 (Bos taurus) for `O=C(NCc1ccccc1)Nc1nc2ccccc2n2c(=O)n(-c3ccccc3)nc12` is 8.39

pKi on Adenosine receptor A1 (Bos taurus) for `O=c1n(-c2ccccc2)nc2c(NS(=O)(=O)c3ccccc3)nc3ccccc3n12` is 6.80

pKi on Adenosine receptor A1 (Bos taurus) for `O=c1n(-c2ccccc2)nc2c(NS(=O)(=O)c3ccccc3)nc3c([N+](=O)[O-])cccc3n12` is 6.68

pKi on Adenosine receptor A1 (Bos taurus) for `COc1ccc(-n2nc3c(NC(=O)c4ccncc4)nc4ccccc4n3c2=O)cc1` is 6.63

pKi on Adenosine receptor A1 (Bos taurus) for `CS(=O)(=O)N(c1nc2ccccc2n2c(=O)n(-c3ccccc3)nc12)S(C)(=O)=O` is 7.44

Source: ChEMBL document CHEMBL1150363
